Consider the following compounds; for each one, report its pEC50.
measurement_target: recombinant human 5-HT4 receptor (Homo sapiens, UniProt Q13639)
Sequence (Q13639 whole entry): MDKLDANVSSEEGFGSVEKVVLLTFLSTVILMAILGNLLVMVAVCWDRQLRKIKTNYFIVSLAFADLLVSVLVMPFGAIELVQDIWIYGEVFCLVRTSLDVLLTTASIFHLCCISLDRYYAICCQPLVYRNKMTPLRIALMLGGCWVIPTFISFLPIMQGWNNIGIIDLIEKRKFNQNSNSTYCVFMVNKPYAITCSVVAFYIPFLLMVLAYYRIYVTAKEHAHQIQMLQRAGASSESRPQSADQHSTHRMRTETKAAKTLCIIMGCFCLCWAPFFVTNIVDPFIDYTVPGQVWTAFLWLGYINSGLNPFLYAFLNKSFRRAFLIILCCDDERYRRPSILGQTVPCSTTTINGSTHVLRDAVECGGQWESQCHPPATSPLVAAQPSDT
protocol_summary: Determination of EC50 values for 5-HT4 receptor (CHO cells, pCRE-Luc reporter)
stated_conditions: luciferase reporter, 4 hours incubation, read-out: 5-HT4 receptor agonistic binding in-vitro EC50
pEC50: −log10 of the molar value. Where a name gives a salt, the structure may show the parent alone.

{"compound": "Nc1c(Cl)cc(C(=O)NCC2C3CN(CC4CCOCC4)CC23)c2occc12 (centres unmarked) [Example 13, hydrochloride]", "pEC50": "8.00 to 8.29"}
{"compound": "Nc1c(Cl)cc(C(=O)NCC2C3CN(CC4(O)CCOCC4)CC23)c2occc12 (centres unmarked) [Example 32, oxalate]", "pEC50": "8.00 to 8.29"}
{"compound": "Cc1cc2c(N)c(Cl)cc(C(=O)NCC3CCN(CC(C)(C)O)CC3)c2o1 [Example 52]", "pEC50": "≥ 9.00"}
{"compound": "Nc1c(Cl)cc(C(=O)NCC2(F)CCN(CC3CCOC3)CC2)c2c1CCCO2 (centres unmarked) [Example 10]", "pEC50": "8.30 to 8.96"}
{"compound": "COCCCN1CC2C(CNC(=O)c3cc(Cl)c(N)c4cc(C)oc34)C2C1 (centres unmarked) [Example 64, hydrochloride]", "pEC50": "8.30 to 8.96"}
{"compound": "CC(C)(O)CN1CCC(CNC(=O)c2cc(Cl)c(N)c3ccoc23)CC1 [Example 49]", "pEC50": "8.30 to 8.96"}
{"compound": "CC(C)(O)CN1CC2C(CNC(=O)c3cc(Cl)c(N)c4ccoc34)C2C1 (centres unmarked) [Example 51]", "pEC50": "7.70 to 8.00"}
{"compound": "Cc1cc2c(N)c(Cl)cc(C(=O)NCC3CCN(CC(C)(C)CO)CC3)c2o1 [Example 59]", "pEC50": "≥ 9.00"}

Please state, for each entry, its recorded pEC50.
1. CC(C)(O)CN1CCC(CNC(=O)c2cc(Br)c(N)c3c2OCCC3)CC1 [Example 46]
2. Nc1c(Cl)cc(C(=O)NCC2C3CN(CC4(O)CCOCC4)CC23)c2c1CCO2 (centres unmarked) [Example 35, oxalate]
3. Nc1c(Cl)cc(C(=O)NCC2[C@H]3CN(CC4CCOC4)C[C@@H]23)c2c1CCCO2 (some centres unmarked) [Example 8]
4. Nc1c(Cl)cc(C(=O)NCC2C3CN(CC4CCOCC4)CC23)c2c1CCO2 (centres unmarked) [Example 26]
5. CC(C)N1CC2C(CNC(=O)c3cc(Cl)c(N)c4c3OCC4)C2C1 (centres unmarked) [Example 20, oxalate]
6. Nc1c(Cl)cc(C(=O)NCC2C3CN(CC4CCOCC4)CC23)c2c1CCCO2 (centres unmarked) [Example 1, hydrochloride]

Ans.
["≥ 9.00", "8.30 to 8.96", "≥ 9.00", "8.30 to 8.96", "8.00 to 8.29", "≥ 9.00"]

Please state, for each entry, its recorded pEC50.
1. COCCCN1CC2C(CNC(=O)c3cc(Cl)c(N)c4c3OCC4)C2C1 (centres unmarked) [Example 62, oxalate]
2. CC(C)(F)CN1CCC(CNC(=O)c2cc(Cl)c(N)c3c2OCCC3)CC1 [Example 55]
3. CC(C)(CO)CN1CC2C(CNC(=O)c3cc(Cl)c(N)c4c3OCCC4)C2C1 (centres unmarked) [Example 58]

Ans.
["8.30 to 8.96", "≥ 9.00", "≥ 9.00"]

###

protocol_summary: Rodent pharmacokinetic study
Type: in vivo, Male wistar rats
stated_conditions: male, Wistar, plasma; rat, 1 mg/kg, intravenous (bolus)
Consider the following compounds; for each one, report its AUC(0-t).
Numbers only, in ng·h/mL.

{"compound": "Nc1c(Cl)cc(C(=O)NCC2C3CN(CC4CCOCC4)CC23)c2c1CCCO2.O=C(O)C(O)C(O)C(=O)O (centres unmarked) [Example 3]", "result": 158}
{"compound": "CC(C)(O)CN1CCC(F)(CNC(=O)c2cc(Cl)c(N)c3c2OCCC3)CC1.O=C(O)C(O)C(O)C(=O)O [Example 44]", "result": 232}
{"compound": "CC(C)(O)CN1CCC(F)(CNC(=O)c2cc(Br)c(N)c3c2OCCC3)CC1.O=C(O)C(O)C(O)C(=O)O [Example 48]", "result": 211}
{"compound": "Cc1cc2c(N)c(Cl)cc(C(=O)NCC3(F)CCN(CC(C)(C)O)CC3)c2o1.O=C(O)C(O)C(O)C(=O)O [Example 53]", "result": 147}

Qu. Name the reported AUC(0-t) value associated with the compound CC(C)(O)CN1CCC(F)(CNC(=O)c2cc(Cl)c(N)c3ccoc23)CC1 [Example 50]
Ans. 182

###

protocol_summary: Rodent pharmacokinetic study
Type: in vivo, Male wistar rats
stated_conditions: male, Wistar, plasma; rat, 3 mg/kg, oral (gavage)
recorded_endpoint: AUC(0-t) (ng·h/mL)
Numbers only, in ng·h/mL.

{"molecule": "CC(C)(O)CN1CCC(F)(CNC(=O)c2cc(Cl)c(N)c3ccoc23)CC1", "result": 346}
{"molecule": "Cc1cc2c(N)c(Cl)cc(C(=O)NCC3(F)CCN(CC(C)(C)O)CC3)c2o1.O=C(O)C(O)C(O)C(=O)O", "result": 250}

Please state, for each entry, its recorded AUC(0-t).
1. CC(C)(O)CN1CCC(F)(CNC(=O)c2cc(Br)c(N)c3c2OCCC3)CC1.O=C(O)C(O)C(O)C(=O)O
2. CC(C)(O)CN1CCC(F)(CNC(=O)c2cc(Cl)c(N)c3c2OCCC3)CC1.O=C(O)C(O)C(O)C(=O)O
3. Nc1c(Cl)cc(C(=O)NCC2C3CN(CC4CCOCC4)CC23)c2c1CCCO2.O=C(O)C(O)C(O)C(=O)O (centres unmarked)

Ans.
[224, 176, 324]

###

protocol_summary: Rodent pharmacokinetic study
Format: in vivo, Male wistar rats
stated_conditions: male, Wistar, plasma; rat, 3 mg/kg, oral (gavage)
recorded_endpoint: half-life (h)
Answers are plain numbers, in h.

{"molecule": "CC(C)(O)CN1CCC(F)(CNC(=O)c2cc(Cl)c(N)c3ccoc23)CC1", "unit_of_measure": "h", "half-life": 1.5}
{"molecule": "Cc1cc2c(N)c(Cl)cc(C(=O)NCC3(F)CCN(CC(C)(C)O)CC3)c2o1.O=C(O)C(O)C(O)C(=O)O", "unit_of_measure": "h", "half-life": 1.6}
{"molecule": "Nc1c(Cl)cc(C(=O)NCC2C3CN(CC4CCOCC4)CC23)c2c1CCCO2.O=C(O)C(O)C(O)C(=O)O (centres unmarked)", "unit_of_measure": "h", "half-life": 1.6}

Please state, for each entry, its recorded half-life.
1. CC(C)(O)CN1CCC(F)(CNC(=O)c2cc(Br)c(N)c3c2OCCC3)CC1.O=C(O)C(O)C(O)C(=O)O
2. CC(C)(O)CN1CCC(F)(CNC(=O)c2cc(Cl)c(N)c3c2OCCC3)CC1.O=C(O)C(O)C(O)C(=O)O

Ans.
[1, 1.3]

###

protocol_summary: Rodent pharmacokinetic study
Assay type: in vivo, Male wistar rats
stated_conditions: male, Wistar, plasma; rat, 3 mg/kg oral vs 1 mg/kg intravenous
Consider the following compounds; for each one, report its bioavailability.
Answers are plain numbers, in %.

{"compound": "CC(C)(O)CN1CCC(F)(CNC(=O)c2cc(Cl)c(N)c3ccoc23)CC1 [Example 50]", "unit_of_measure": "%", "bioavailability": 63}

Please state, for each entry, its recorded bioavailability.
1. Nc1c(Cl)cc(C(=O)NCC2C3CN(CC4CCOCC4)CC23)c2c1CCCO2.O=C(O)C(O)C(O)C(=O)O (centres unmarked) [Example 3]
2. Cc1cc2c(N)c(Cl)cc(C(=O)NCC3(F)CCN(CC(C)(C)O)CC3)c2o1.O=C(O)C(O)C(O)C(=O)O [Example 53]
3. CC(C)(O)CN1CCC(F)(CNC(=O)c2cc(Br)c(N)c3c2OCCC3)CC1.O=C(O)C(O)C(O)C(=O)O [Example 48]
4. CC(C)(O)CN1CCC(F)(CNC(=O)c2cc(Cl)c(N)c3c2OCCC3)CC1.O=C(O)C(O)C(O)C(=O)O [Example 44]

Ans.
1. 68
2. 27
3. 35
4. 25

###

protocol_summary: Rodent pharmacokinetic study
Format: in vivo, Male wistar rats
stated_conditions: male, Wistar, plasma; rat, 3 mg/kg, oral (gavage)
Description: Male wistar rats (225±25 grams) were used as experimental animals. Three to five animals were housed in each cage. […] At each time point blood was collected through jugular vein and immediately replenish with an equivalent volume of normal saline from freely moving rats. […] The concentrations of the test compounds were quantified in plasma by qualified LC-MS/MS method using suitable extraction technique. The test compounds were quantified in the calibration range around 2-2000 ng/mL in plasma. […]
Consider the following compounds; for each one, report its Cmax.
Give the figure together with its unit, number first.

Observe how each entry below is paired with its result.
{"compound": "Cc1cc2c(N)c(Cl)cc(C(=O)NCC3(F)CCN(CC(C)(C)O)CC3)c2o1.O=C(O)C(O)C(O)C(=O)O [Example 53]", "result": "182 ng/mL"}
{"compound": "CC(C)(O)CN1CCC(F)(CNC(=O)c2cc(Cl)c(N)c3ccoc23)CC1 [Example 50]", "result": "230 ng/mL"}
{"compound": "CC(C)(O)CN1CCC(F)(CNC(=O)c2cc(Cl)c(N)c3c2OCCC3)CC1.O=C(O)C(O)C(O)C(=O)O [Example 44]", "result": "110 ng/mL"}
{"compound": "Nc1c(Cl)cc(C(=O)NCC2C3CN(CC4CCOCC4)CC23)c2c1CCCO2.O=C(O)C(O)C(O)C(=O)O (centres unmarked) [Example 3]", "result": "131 ng/mL"}

Consider now this further compound.
Qu. Name the reported Cmax value associated with the compound CC(C)(O)CN1CCC(F)(CNC(=O)c2cc(Br)c(N)c3c2OCCC3)CC1.O=C(O)C(O)C(O)C(=O)O [Example 48]
Ans. 167 ng/mL
